tested on: HIF-2α (Homo sapiens)
Sequence (Q99814 whole entry): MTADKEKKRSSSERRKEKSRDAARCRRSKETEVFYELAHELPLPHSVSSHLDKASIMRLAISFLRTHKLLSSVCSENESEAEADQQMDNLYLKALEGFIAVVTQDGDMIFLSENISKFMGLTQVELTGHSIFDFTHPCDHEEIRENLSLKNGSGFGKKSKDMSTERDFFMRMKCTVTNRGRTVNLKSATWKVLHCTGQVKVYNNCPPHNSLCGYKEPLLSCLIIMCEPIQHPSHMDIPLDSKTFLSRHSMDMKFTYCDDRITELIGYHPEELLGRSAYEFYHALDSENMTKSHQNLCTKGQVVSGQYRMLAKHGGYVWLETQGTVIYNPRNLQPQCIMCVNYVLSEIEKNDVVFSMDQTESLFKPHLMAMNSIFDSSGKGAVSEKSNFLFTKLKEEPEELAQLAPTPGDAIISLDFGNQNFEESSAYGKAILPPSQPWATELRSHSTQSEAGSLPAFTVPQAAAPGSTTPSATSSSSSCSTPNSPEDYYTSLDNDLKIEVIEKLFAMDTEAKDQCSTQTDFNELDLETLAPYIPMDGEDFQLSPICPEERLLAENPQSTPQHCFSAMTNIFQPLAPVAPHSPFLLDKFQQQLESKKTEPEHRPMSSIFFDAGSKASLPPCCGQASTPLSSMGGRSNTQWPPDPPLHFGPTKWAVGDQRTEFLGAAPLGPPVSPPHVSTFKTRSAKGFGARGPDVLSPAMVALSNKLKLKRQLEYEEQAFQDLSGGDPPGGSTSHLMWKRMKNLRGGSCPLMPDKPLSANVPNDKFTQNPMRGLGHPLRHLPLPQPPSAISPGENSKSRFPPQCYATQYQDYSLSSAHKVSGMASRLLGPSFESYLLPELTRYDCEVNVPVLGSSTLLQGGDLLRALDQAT
assay overview: HIF-2α Luciferase Reporter Assay (serum), HRE-luciferase 786-0 cells in 100% human serum
Format: cell-based
measurement parameters: 100% human serum, 786-0 reporter cells, overnight incubation; read-out: Serum Potency

| molecule | IC50 |
| --- | --- |
| CO[C@H](CCn1nc(C(F)(F)F)c2c1CC(F)(F)[C@H]2O)C(F)(F)F | < 100 nM |
| O[C@H]1c2c(C(F)(F)F)nn(CCOC(F)(F)F)c2CCC1(F)F | > 1000 nM |
| O[C@H]1c2c(C(F)(F)F)nn([C@H]3CCC[C@@H](F)C3)c2CC1(F)F (racemic) [90 DIAST-1] | 100 to 1000 nM |
| O[C@H]1c2c(C(F)(F)F)nn(CCc3ccoc3)c2CC1(F)F | > 1000 nM |
| O[C@H]1c2c(C(F)(F)F)nn(-c3ccc(Cl)c(Cl)c3)c2CC1(F)F | > 1000 nM |
| O[C@H]1c2c(C(F)(F)F)nn([C@@H]3CCC[C@H](C(F)(F)F)C3)c2CC1(F)F | > 1000 nM |
| O[C@H]1c2c(C(F)(F)F)nn(C[C@H](F)C3CC3)c2CCC1(F)F (single isomer, unassigned) [26/27 DIAST-2] | > 1000 nM |
| O[C@H]1c2c(C(F)(F)F)nn(C3CCC(F)(F)C3)c2CC1(F)F (mixture of isomers) | > 1000 nM |
